Please go through the items and note down their Sterility (%).
System: wheat variety 'OSLO'
Assay: Chemical hybridizing agent assay for male sterility (male gametocidal activity), foliar spray, seed counts
Type: in vivo
Details: Table 4; rate 50 μg/plant
Description: The compounds of structure 3 and analogs are applied at a rate of 50-1000 μg/plant to cause pollen sterility. The male gametocidal activity is determined on the wheat variety ‘OSLO’, a double-dwarf hard red spring wheat. […] The chemical hybridizing agent Genesis® (a registered Trade Mark of the Monsanto Co) is used as the positive control and for comparative purposes as to the rate of application and the efficacy as determined by percent sterility. […]
Numbers only, in %.

CCCCn1cc(P(=O)(OC)OC)c(=O)n1-c1cc(C)cc(C)c1 [Compound 5d]
29
CCn1cc(P(=O)(OC)OC)c(=O)n1-c1ccc(Cl)cc1 [Compound 5a]
11
COP(=O)(OC)c1cn(C2CCCCC2)n(-c2ccc(Cl)cc2)c1=O [Compound 5b]
0

Please turn your attention to the following entry.
Lookup: Find the measured Sterility (%): item CCn1cc(P(=O)(OC)OC)c(=O)n1-c1cc(C)cc(C)c1 [Compound 5c] , target or system wheat variety 'OSLO'.
Found: 8
